These measurements were taken from ChEMBL document CHEMBL1201862.

tested on: OVCAR-3; assay: NCI tumour cell line growth inhibition, 48 h
Calls of active or inactive are those of the source. Cut-off read from the data, not from the text of the source: active = GI50 up to about 1.1 µM and inactive = higher. *1 amine or outer side, *2 acyl side, *3 side chain or, on linkers, in order; H or OH if unused. Where a SMILES comes first, the peptide text is derived from it. Bridges are numbered along the chain shown (N, C = ends). [ ]: non-standard residue; d: D form. X36 = CC[C@H](C)[C@@H](N[*:1])[C@@H](O)CC(=O)O[C@H](C(=O)[C@H](C)C(=O)[*:2])C(C)C; NMeY = CN[C@@H](Cc1ccc(O)cc1)C(=O)O
Possible outcomes: active, inactive

Compound	Classification
CC[C@H](C)[C@H]1NC(=O)[C@@H](N)[C@@H](C)OC(=O)[C@H](Cc2ccc(OC)cc2)N(C)C(=O)[C@@H]2CCCN2C(=O)[C@H](CC(C)C)NC(=O)[C@@H](C)C(=O)[C@H](C(C)C)OC(=O)C[C@@H]1O (H-T[X36]LP[NMeY](Me); ester 1-C)	inactive
CS(=O)(=O)OCC1OC(n2ccc(NC(=O)c3ccccc3)nc2=O)CC1OS(C)(=O)=O (configuration not stated)	inactive
COc1cc2c(cc1OC)C(=O)/C(=C/c1ccccc1)CC2	inactive
COC(=O)c1cc(OCc2cc(OCc3ccc(Br)cc3)cc(OCc3ccc(Br)cc3)c2)cc(OCc2cc(OCc3ccc(Br)cc3)cc(OCc3ccc(Br)cc3)c2)c1	inactive
S=c1sc2c(n1-c1ccccc1)N=CNC2S (configuration not stated)	inactive
CCOC(=O)/C=C(/N=P(c1ccccc1)(c1ccccc1)c1ccccc1)C(F)(F)F	inactive
COc1ccc(CNc2nc(NCc3ccc(OC)cc3)nc(NC3CCCCC3)n2)cc1	inactive
COc1ccc(/N=C/C=C/Nc2ccc(OC)cc2)cc1	inactive
O=NN(CCCl)C(=O)Nc1ccc(Cl)c(Cl)c1	inactive
O=C1C2SC34c5c2c2ccccc2n5CCC3CCCN14 (configuration not stated)	inactive
C=C(C)C(=O)OC1C[C@H](COC(C)=O)C2CC=C(C)C2C2OC(=O)C(=C)[C@H]12 (some centres not stated)	inactive
CC(=O)NC(CCCN(Cc1ccccc1)C(=O)N(C)N=O)C(=O)NCc1ccccc1 (configuration not stated)	inactive
C#C[C@]1(O)[C@@H](CO)O[C@@H](n2ccc(N)nc2=O)[C@@H]1O	active
COc1ccc(NC(=O)CC(=O)n2nc(-c3ccccc3)c(/N=N/c3ccccc3C(=O)O)c2-c2ccccc2)cc1	inactive
COc1ccc(/C=C2\C[C@H]3[C@@H]4CC=C5C[C@@H](OC(C)=O)CC[C@]5(C)[C@H]4CC[C@]3(C)\C2=N\O)cc1OC	inactive
O=[N+]([O-])c1cc2c(cc1O)[nH]c1cccc([N+](=O)[O-])c12	inactive
CN(C)CC(C)(C)C(=O)/C=C/c1ccc(/C=C/C(=O)C(C)(C)CN(C)C)cc1	inactive
CC(=O)CC(=O)CCCC(=O)Nc1ccc(Cl)cc1C	inactive
COC(=O)[C@@H]1[C@H](OC(C)=O)CCC2[C@@]3(C[C@@H](c4ccoc4)O[C@@H]3OC)[C@H](C)CC[C@]21C(=O)OC (some centres not stated)	inactive
O=C1c2ccccc2C(=O)N1CCc1ncc[nH]1	inactive
COC(=O)[C@@H](O)[C@]1(C(=O)OC)C2O[C@@H](OC)[C@@H]1CCCCCC[C@H]2O	inactive
Clc1ccccc1/C=c1\nc(-c2ccccc2)n2c1nc1ccccc12	inactive
CC(C)C(=O)OCC1CCCN2CCCCC12 (configuration not stated)	inactive
CCCCCCCCCCC(=O)CC(=O)c1c(O)cccc1O	inactive
Cc1ccc(N2C(=O)CS/C2=C(\C#N)c2nc3ccccc3[nH]2)cc1	inactive
CCCCCCC(CCl)c1sc(-c2csc(CCNC(=O)OC(C)(C)C)n2)nc1C(=O)OC (configuration not stated)	inactive
Cc1cc(Cl)ccc1N1C(=O)C(=O)C(c2nc3ccccc3s2)/C(=N\NC(=O)c2ccccc2O)C1=O (configuration not stated)	inactive
Cn1c(N)nc(=O)c2c1N(C1OC(CO)C(O)C1O)CN2Cc1ccccc1 (configuration not stated)	inactive
[O-][n+]1onc2c3nn(-c4ccccc4)nc3ccc21	inactive
CO[C@H]1[C@@H](O)[C@@H](O)O[C@@H](O[C@H]2CC[C@@]3(C)[C@H](CC[C@@H]4[C@@H]3[C@H](O)C[C@]3(C)[C@@H](C5=CC(=O)OC5)CC[C@]43O)C2)[C@@H]1O	active
O=C(C=P(c1ccccc1)(c1ccccc1)c1ccccc1)C12CC3CC(CC(C3)C1)C2	inactive
C/C(=N\N(C)C)C(CN(C)C)C(c1ccccc1)c1c(O)c2ccccc2oc1=O (configuration not stated)	inactive
CCCOC(=O)C1CCC(=O)N1C(=O)C(Cl)Cl (configuration not stated)	inactive
NC(=O)C1C(=O)Oc2cccnc21 (configuration not stated)	inactive
OCC1c2ccccc2-n2nc(-c3ccccc3)c(O)c21 (configuration not stated)	inactive
O=C(Nc1ccc(Br)cc1)c1c(-c2ccccc2)c2ccc(O)cc2oc1=O	inactive
CCC/N=C/c1c(O)c(O)c(C(C)C)c2cc(C)c(-c3c(C)cc4c(C(C)C)c(O)c(O)c(/C=N/CCC)c4c3O)c(O)c12	inactive
